target: Cannabinoid receptor 2 (Homo sapiens, UniProt P34972); experiment: Agonist activity at human CB2 receptor transfected in CHO cells assessed as inhibition of forskolin-stimulated adenylyl cyclase activity at 10 uM after 15 mins by liquid scintillation spectrophotometry; type: functional, cell-based
Sequence (P34972 whole entry): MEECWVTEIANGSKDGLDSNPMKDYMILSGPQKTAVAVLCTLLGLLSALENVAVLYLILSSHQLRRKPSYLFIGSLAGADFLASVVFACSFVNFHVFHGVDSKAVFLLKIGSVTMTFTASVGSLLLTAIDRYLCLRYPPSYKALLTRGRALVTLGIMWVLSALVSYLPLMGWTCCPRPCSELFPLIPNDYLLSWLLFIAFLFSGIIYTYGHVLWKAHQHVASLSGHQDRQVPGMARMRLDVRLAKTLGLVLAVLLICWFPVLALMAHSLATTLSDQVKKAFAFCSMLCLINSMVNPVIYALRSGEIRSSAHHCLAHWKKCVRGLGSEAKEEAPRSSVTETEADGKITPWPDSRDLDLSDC
observation type: inhibition (%)
One number for each entry, in %.

Examples with their reported inhibition follow.
CCCCn1cc(-c2ccc3ccccc3c2)c2cccc(OC)c21: 20.8
CCCCn1cc(-c2cccc3ccccc23)c2cccc(OC)c21: 37
CCCCn1cc(C(=O)c2cccc3ccccc23)c2cccc(OC)c21: 52
COc1cccc2c(C(=O)c3cccc4ccccc34)cn(CCN3CCOCC3)c12: 37
CCCCn1cc(C(=O)c2ccc(F)cc2)c2cccc(OC)c21: 38
CCCCn1cc(C(=O)c2cccc3ccccc23)c2cc(OC)ccc21: 31
CCCCn1cc(C(=O)Cc2ccc(F)cc2)c2cccc(OC)c21: 22
CCCCn1cc(C(=O)c2cccc3ccccc23)c2cccc(O)c21: 38

Lab note: each molecule below needs its inhibition filled in.
1. CCCCn1cc(C(=O)Cc2ccccc2)c2cccc(OC)c21
2. CCCCn1cc(C(=O)Cc2ccccc2F)c2cccc(OC)c21
3. CCCCn1cc(Cc2cccc3ccccc23)c2cccc(OC)c21
4. CCCCn1cc(C(=O)Cc2cccc(F)c2F)c2cccc(OC)c21

Result:
1: 16; 2: 1; 3: 33; 4: -6

Item: "CCCCn1cc(C(=O)c2cccc3ccccc23)c2cc(O)ccc21" | inhibition: 37
